Origin of the recorded values: paper PMC8826081

Test system: A549/DDP (cisplatin-resistant A549 cells)
assay_protocol: MTT antiproliferative activity against cisplatin-resistant A549
Assay type: cell-based
measurement_conditions: Homo sapiens; MTT assay, cisplatin-resistant A549 cells
quantity_name: IC50 (µM)
Output spec: scalar in µM, unitless text.

Quickly give me recorded IC50 for COc1ccc2c(c1)C(=NO)C(=O)N2CCCOC1O[C@@H]2O[C@@]3(C)CC[C@H]4[C@H](C)CC[C@@H]([C@H]1C)[C@@]24OO3 (stereo partly drawn)
60.2

Annotate the compound C[C@@H]1CC[C@H]2[C@@H](C)C(OCCCN3C(=O)C(=NNC(N)=S)c4ccccc43)O[C@@H]3O[C@@]4(C)CC[C@@H]1[C@]32OO4 (stereo partly drawn) with its measured IC50.
28.8

Find the measured IC50 of Cc1ccc2c(c1)C(=NNC(N)=S)C(=O)N2CCCOC1O[C@@H]2O[C@@]3(C)CC[C@H]4[C@H](C)CC[C@@H]([C@H]1C)[C@@]24OO3 (stereo partly drawn) and report it.
94.2

Return the recorded IC50 value; entry: C[C@@H]1CC[C@H]2[C@@H](C)C(OCCCN3C(=O)C(=NO)c4ccccc43)O[C@@H]3O[C@@]4(C)CC[C@@H]1[C@]32OO4 (stereo partly drawn)
9.84

###

System: A549/DDP (cisplatin-resistant A549 cells)
assay_protocol: MTT antiproliferative activity against cisplatin-resistant A549
Type: cell-based
measurement_conditions: Homo sapiens; MTT assay, cisplatin-resistant A549 cells
Field: pIC50. Provide a value for each of the molecules that follow.
Friendly reminder that pIC50 comes from taking -log10 of the concentration in mol/L.

Report pIC50 for Cc1ccc2c(c1)C(=NO)C(=O)N2CCCOC1O[C@@H]2O[C@@]3(C)CC[C@H]4[C@H](C)CC[C@@H]([C@H]1C)[C@@]24OO3 (stereo partly drawn)
4.30

Indicate its recorded pIC50; the molecule in question is C[C@H]1[C@@H](O)O[C@@H]2O[C@@]3(C)CC[C@H]4[C@H](C)CC[C@@H]1[C@@]24OO3 [DHA, Dihydroartemisinin]
4.12

Specify measured pIC50 for COc1ccc2c(c1)C(=NNC(N)=S)C(=O)N2CCCOC1O[C@@H]2O[C@@]3(C)CC[C@H]4[C@H](C)CC[C@@H]([C@H]1C)[C@@]24OO3 (stereo partly drawn) .
4.39

Fill in pIC50 for record COc1cccc2c1C(=O)c1c(O)c3c(c(O)c1C2=O)C[C@@](O)(C(=O)CO)C[C@@H]3O[C@H]1C[C@H](N)[C@H](O)[C@H](C)O1 [doxorubicin, reference compound]
4.82

###

Answer each item with its documented IC50.
System: A549/DOX (doxorubicin-resistant A549 cells)
assay_protocol: MTT antiproliferative activity against doxorubicin-resistant A549
Type: cell-based
measurement_conditions: Homo sapiens; MTT assay, doxorubicin-resistant A549 cells

Supply measured IC50 of C[C@@H]1CC[C@H]2[C@@H](C)C(OCCCN3C(=O)C(=NNC(N)=O)c4cc(F)ccc43)O[C@@H]3O[C@@]4(C)CC[C@@H]1[C@]32OO4 (some centres unmarked) in your reply.
> 100 µM

Identify IC50 associated with the compound C[C@@H]1CC[C@H]2[C@@H](C)C(OCCCN3C(=O)C(=O)c4cc(F)ccc43)O[C@@H]3O[C@@]4(C)CC[C@@H]1[C@]32OO4 (some centres unmarked)
> 100 µM

Give IC50 for the following compound: Cc1ccc2c(c1)C(=O)C(=O)N2CCCOC1O[C@@H]2O[C@@]3(C)CC[C@H]4[C@H](C)CC[C@@H]([C@H]1C)[C@@]24OO3 (some centres unmarked)
> 100 µM

Give me measured IC50, please, for this compound: C[C@@H]1CC[C@H]2[C@@H](C)C(OCCCN3C(=O)C(=NO)c4ccccc43)O[C@@H]3O[C@@]4(C)CC[C@@H]1[C@]32OO4 (some centres unmarked)
7.35 µM

Supply reported IC50 belonging to this compound: C[C@@H]1CC[C@H]2[C@@H](C)C(OCCCN3C(=O)C(=NNC(N)=S)c4ccccc43)O[C@@H]3O[C@@]4(C)CC[C@@H]1[C@]32OO4 (some centres unmarked)
36.6 µM

Retrieve IC50 measured for COc1cccc2c1C(=O)c1c(O)c3c(c(O)c1C2=O)C[C@@](O)(C(=O)CO)C[C@@H]3O[C@H]1C[C@H](N)[C@H](O)[C@H](C)O1 [doxorubicin, reference compound] and print it.
54.3 µM

Give the value of IC50 reported for the following: C[C@@H]1CC[C@H]2[C@@H](C)C(OCCCN3C(=O)C(=NNC(N)=O)c4ccccc43)O[C@@H]3O[C@@]4(C)CC[C@@H]1[C@]32OO4 (some centres unmarked)
> 100 µM

Specify IC50 for `C[C@@H]1CC[C@H]2[C@@H](C)C(=O)O[C@@H]3O[C@@]4(C)CC[C@@H]1[C@]32OO4` and stop.
> 100 µM

Give the reported IC50 for this compound. C[C@H]1[C@@H](O)O[C@@H]2O[C@@]3(C)CC[C@H]4[C@H](C)CC[C@@H]1[C@@]24OO3 [DHA, Dihydroartemisinin]
88 µM

Supply measured IC50 of C[C@@H]1CC[C@H]2[C@@H](C)C(OCCCN3C(=O)C(=O)c4ccccc43)O[C@@H]3O[C@@]4(C)CC[C@@H]1[C@]32OO4 (some centres unmarked) in your reply.
> 100 µM

Given COc1ccc2c(c1)C(=O)C(=O)N2CCCOC1O[C@@H]2O[C@@]3(C)CC[C@H]4[C@H](C)CC[C@@H]([C@H]1C)[C@@]24OO3 (some centres unmarked) , respond with its IC50.
> 100 µM
